Listed here: items and their measured stacked score activity, 100/MIC, A.
# System: Acinetobacter baumannii
# assay-notes: MIC micro broth dilution assay
# Type: cell-based
# Design: key: stacked score = 100/MIC
# assay-conditions: A. baumannii

Sample records with stacked score activity, 100/MIC, A:
CCCCCCCN1C(=N)N(CCCC[C@H]2CNC(=N)N2CCC23CC4CC(CC(C4)C2)C3)C[C@@H]1CC1CCCCC1 [Compound 25]    25
N=C1NC[C@H](CCCCN2C[C@@H](Cc3cccc4ccccc34)N(CCc3ccc(-c4ccccc4)cc3)C2=N)N1CCC12CC3CC(CC(C3)C1)C2 [Compound 24]    0
CCCCCCCN1C(=N)NC[C@@H]1CCCCN1C[C@H](C(C)CC)N(CCc2cccc(C)c2)C1=N (some centres unmarked) [Compound 32]    4
CCCCCCCN1C(=N)NC[C@@H]1CCCCN1C[C@@H](CCC)N(CCc2cccc(C)c2)C1=N [Compound 35]    4

// next item, stacked score activity, 100/MIC, A requested
The molecule listed as CCCC[C@H]1CN(CCCC[C@H]2CNC(=N)N2CCc2cccc(C(F)(F)F)c2)C(=N)N1CCc1ccc(-c2ccccc2)cc1 [Compound 3] has a reported stacked score activity, 100/MIC, A of 25

* * *

# System: Staphylococcus aureus
# assay-notes: MIC micro broth dilution assay
# Format: cell-based
# Set-up: key: stacked score = 100/MIC
# assay-conditions: S. aureus
Listed here: items and their measured stacked score activity, 100/MIC, S.
Give a plain numeric answer without units written out.

The compound listed as "CCCCCCCN1C(=N)N(CCCC[C@H]2CNC(=N)N2CCCCC2CCCCC2)C[C@H]1Cc1cccc2ccccc12" has a reported stacked score activity, 100/MIC, S of 20

The compound listed as CCCCCCCN1C(=N)NC[C@@H]1CCCCN1C[C@H](C(C)CC)N(CC(C)CC)C1=N (stereo partly shown) has a reported stacked score activity, 100/MIC, S of 4

The compound listed as CCC(C)[C@H]1CN(CCCC[C@H]2CNC(=N)N2CC2CCC(C)CC2)C(=N)N1CCc1cccc(C)c1 (stereo partly shown) has a reported stacked score activity, 100/MIC, S of 10

The compound listed as "CCCCCCCN1C(=N)N(CCCC[C@H]2CNC(=N)N2CCC23CC4CC(CC(C4)C2)C3)C[C@H]1Cc1cccc2ccccc12" has a reported stacked score activity, 100/MIC, S of 20

The compound listed as "N=C1NC[C@H](CCCCN2C[C@@H](Cc3cccc4ccccc34)N(CCc3ccc(-c4ccccc4)cc3)C2=N)N1CCCCC1CCCCC1" has a reported stacked score activity, 100/MIC, S of 20

The compound listed as "CCC[C@@H]1CN(CCCC[C@H]2CNC(=N)N2CC2CCCCC2)C(=N)N1CCc1cccc(C)c1" has a reported stacked score activity, 100/MIC, S of 4

The compound listed as CCCCC1CN(CCCCC2CNC(=N)N2CCC23CC4CC(CC(C4)C2)C3)C(=N)N1CCc1ccc(-c2ccccc2)cc1 (stereo not shown) has a reported stacked score activity, 100/MIC, S of 20

* * *

# System: Pseudomonas aeruginosa
# assay-notes: MIC micro broth dilution assay
# Type: cell-based
# assay-conditions: Pseudomonas aeruginosa, P. aeruginosa isolate 1420
Listed here: items and their measured MIC.
Provide only the numeric value, understood in µM.

Sample records with MIC:
CCCCCCCN1C(=N)N(CCCC[C@H]2CNC(=N)N2CCc2cccc(C(F)(F)F)c2)C[C@@H]1CCCC    5
CCCCCCCN1C(=N)N(CCCC[C@H]2CNC(=N)N2CCCCC2CCCCC2)C[C@@H]1CC1CCCCC1    3

Form field MIC for item "CCCC[C@H]1CN(CCCC[C@H]2CNC(=N)N2CCc2cccc(C(F)(F)F)c2)C(=N)N1CCCCC1CCCCC1" on Pseudomonas aeruginosa: 3

Form field MIC for item "CCCCCCCN1C(=N)N(CCCC[C@H]2CNC(=N)N2CCc2cccc(C(F)(F)F)c2)C[C@@H]1CC1CCCCC1" on Pseudomonas aeruginosa: 5

* * *

# System: Klebsiella pneumoniae
# assay-notes: MIC micro broth dilution assay
# Type: cell-based
# assay-conditions: Klebsiella pneumoniae, K. pneumoniae isolate 1440
# Protocol: For this study we used a representative panel of multi-drug resistant clinical ESKAPE pathogen isolates (Supplemental Table S6).^42 43 3a, 44 45 Gram-positive organisms were grown in tryptic soy broth media (TSB), whilst Gram-negative organisms were grown in lysogeny Broth (LB), as described by us previously. ^43 MIC and MBC determination assays. Broth cultures of ESKAPE strains were grown overnight before being diluted 1 in 1,000 in fresh media. […]
result-type: MIC

Sample records with MIC:
CCCCCCCN1C(=N)N(CCCC[C@H]2CNC(=N)N2CCCCC2CCCCC2)C[C@@H]1CC1CCCCC1 [Compound 16]    3 µM
CCCCCCCN1C(=N)N(CCCC[C@H]2CNC(=N)N2CCc2cccc(C(F)(F)F)c2)C[C@@H]1CC1CCCCC1 [Compound 7]    3 µM
CCCC[C@H]1CN(CCCC[C@H]2CNC(=N)N2CCc2cccc(C(F)(F)F)c2)C(=N)N1CCCCC1CCCCC1 [Compound 2]    5 µM

The compound listed as CCCCCCCN1C(=N)N(CCCC[C@H]2CNC(=N)N2CCc2cccc(C(F)(F)F)c2)C[C@@H]1CCCC [Compound 1] has a reported MIC of 2 µM

* * *

# System: ESKAPE pathogens
# assay-notes: MIC micro broth dilution assay, statements and stacked scores over all ESKAPE pathogens
# Assay type: cell-based
# assay-conditions: dose 5 ug/ml; letters E,S,K,A,P,E = ESKAPE pathogens; — = none
# Experimental: For this study we used a representative panel of multi-drug resistant clinical ESKAPE pathogen isolates (Supplemental Table S6).^42 43 3a, 44 45 Gram-positive organisms were grown in tryptic soy broth media (TSB), whilst Gram-negative organisms were grown in lysogeny Broth (LB), as described by us previously. ^43 MIC and MBC determination assays. […]
result-type: pathogens against which the compound showed activity at 5 ug/ml

Sample records with pathogens against which the compound showed activity at 5 ug/ml:
N=C1NC[C@H](CCCCN2C[C@H](CC3CCCCC3)N(CCCCC3CCCCC3)C2=N)N1CCC12CC3CC(CC(C3)C1)C2    ESKAPE
N=C1NC[C@H](CCCCN2C[C@H](CC3CCCCC3)N(CCc3ccc(-c4ccccc4)cc3)C2=N)N1CCc1cccc(C(F)(F)F)c1    ESKAPE
N=C1NC[C@H](CCCCN2C[C@H](CC3CCCCC3)N(CCc3ccc(-c4ccccc4)cc3)C2=N)N1CCCCC1CCCCC1    ESKAPE
CCCCCCCN1C(=N)N(CCCC[C@H]2CNC(=N)N2CCC23CC4CC(CC(C4)C2)C3)C[C@@H]1CC1CCCCC1    ESKAPE
CCCCCCCN1C(=N)N(CCCC[C@H]2CNC(=N)N2CCC23CC4CC(CC(C4)C2)C3)C[C@H]1Cc1cccc2ccccc12    ESKAE

The compound listed as CCCCC1CN(CCCCC2CNC(=N)N2CCC23CC4CC(CC(C4)C2)C3)C(=N)N1CCCCC1CCCCC1 (stereo not shown) has a reported pathogens against which the compound showed activity at 5 ug/ml of ESKAPE

The compound listed as "N=C1NC[C@H](CCCCN2C[C@@H](Cc3cccc4ccccc34)N(CCc3ccc(-c4ccccc4)cc3)C2=N)N1CCc1cccc(C(F)(F)F)c1" has a reported pathogens against which the compound showed activity at 5 ug/ml of SKAE

The compound listed as "N=C1NC[C@H](CCCCN2C[C@@H](Cc3cccc4ccccc34)N(CCCCC3CCCCC3)C2=N)N1CCCCC1CCCCC1" has a reported pathogens against which the compound showed activity at 5 ug/ml of SKAE

The compound listed as "CCCC[C@H]1CN(CCCC[C@H]2CNC(=N)N2CCc2cccc(C(F)(F)F)c2)C(=N)N1CCCCC1CCCCC1" has a reported pathogens against which the compound showed activity at 5 ug/ml of ESKAPE

The compound listed as "CCCC[C@H]1CN(CCCC[C@H]2CNC(=N)N2CCc2cccc(C(F)(F)F)c2)C(=N)N1CCc1ccc(-c2ccccc2)cc1" has a reported pathogens against which the compound showed activity at 5 ug/ml of ESKAPE

The compound listed as "CCCCCCCN1C(=N)N(CCCC[C@H]2CNC(=N)N2CCCCC2CCCCC2)C[C@@H]1CC1CCCCC1" has a reported pathogens against which the compound showed activity at 5 ug/ml of ESKAPE

The compound listed as "CCCCCCCN1C(=N)N(CCCC[C@H]2CNC(=N)N2CCc2cccc(C(F)(F)F)c2)C[C@H]1Cc1cccc2ccccc12" has a reported pathogens against which the compound showed activity at 5 ug/ml of ESKAE

The compound listed as "CCCCCCCN1C(=N)N(CCCC[C@H]2CNC(=N)N2CCC23CC4CC(CC(C4)C2)C3)C[C@@H]1CCCC" has a reported pathogens against which the compound showed activity at 5 ug/ml of ESKAPE

The values you see were collected from patent US20170065564A1.
